B1: ISL2 (parent)
chain: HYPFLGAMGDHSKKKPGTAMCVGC

# Variants of: B1
# assay-name: protein stability index of a GFP-peptide fusion (GPS, HEK-293T) (PSI 1-6); higher = more stable;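 further: lentivirally expressed fusions sorted by FACS into six bins by GFP to DsRed ratio, PSI derived from sequencing read proportions per bin multiplied by bin number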
# experimental-parameters: c terminus: a fixed tail appended
Short version: protein stability index at least 3 is Criterion met, less is Criterion not met.

- primary-sequence: "HYPFLGAMGEHSKKKPGTAMCVGC [D10E]"
  group-label: "Criterion met"
- primary-sequence: "HYPFLGAMGDHSKKKPGLAMCVGC [T18L]"
  group-label: "Criterion not met"
- primary-sequence: "HYPFLGAMGDHSKGKPGTAMCVGC [K14G]"
  group-label: "Criterion not met"
- primary-sequence: "HYPFLGAMGDHSKKKPGTAMCVGY [C24Y]"
  group-label: "Criterion not met"
- primary-sequence: "HYPFLGAMGDHSKKKPGTARCVGC [M20R]"
  group-label: "Criterion met"
